# System: NCI-H226
# measurement_notes: NCI tumour cell line growth inhibition, 48 h
Activity calls are given as the source filed them. Rule as the data show it: active = GI50 up to about 1.1 µM and inactive = higher.
Hi! Could you answer with just one of these? yes (1) (active), no (0) (inactive)

Some entries whose results are on file:
CC[C@H](C)[C@H]1NC(=O)C(C(C)=O)=C1O = no (0)
CNC(=S)NC(=S)N(C)C = no (0)
O=C(O)Cc1cccc2c(=O)c3ccccc3oc12 = no (0)

Ask: Status in this test for COC(=O)C(=O)C(C(=O)C(=O)Nc1cc(Cl)c(Cl)cc1Cl)c1nc2ccc([N+](=O)[O-])cc2nc1O (centres undefined) ?
Reply: no (0)

Ask: Field: outcome | Entry: O=[N+]([O-])c1ccc(/C=N/n2c(CO)nc3ccccc32)o1
Reply: no (0)

###

# Test system: LOX IMVI
# measurement_notes: NCI tumour cell line growth inhibition, 48 h
The source made the active and inactive calls. No stated cut-off is given here; in the data, active = GI50 up to about 1.1 µM and inactive = higher.
Respond using exactly one of the listed classes: active, inactive

Example entries and their recorded answers appear below.
O=C(O)CNc1ccc2c(c1)Cc1cc(Br)ccc1-2 = inactive
CC(C)=CC1C(C(=O)O)C1(C)C (configuration not stated) [CHRYSANTHEMIC ACID] = inactive
NCCCCNCCCNC(=O)CNC(=O)CC(O)C(N)CCCC(NC(=O)C(CN)NC(=O)C(O)CNC(=O)CC(N)c1ccc(O)cc1)C(=O)O (configuration not stated) = inactive

Next, consider the following molecule.
Ask: Could you please tell me the result logged for CC(=O)c1c(=O)n(-c2ccc(C)cc2)c(O)c2c(N)n[nH]c12 in this assay?
Reply: inactive

###

# Test system: MCF7
# measurement_notes: NCI tumour cell line growth inhibition, 48 h
Calls of active or inactive are those of the source. Rule as the data show it: active = GI50 up to about 1.1 µM and inactive = higher.
Classes to choose from: YES for active, NO for inactive

CCCCCCCCCCCCN(CC(O)C(O)C(OC1OC(CO)C(O)C(O)C1O)C(O)CO)C(=O)CCCCCCCCCCC (stereo not drawn) = NO
CN(C)/C=C/c1c2c(nc3ccccc13)C(=O)c1cccnc1C2=O = YES
CCCC1NC(C#N)(C#N)C(CCC)NC1(C#N)C#N (stereo not drawn) = YES
CO/N=C1\CC(NC(=O)C(F)(F)F)c2ccsc21 (stereo not drawn) = NO
Cn1c(=O)c2[nH]c(C3CC(=O)CC(c4nc5c([nH]4)c(=O)n(C)c(=O)n5C)N3)nc2n(C)c1=O (stereo not drawn) = NO
Nc1nc(N)c2nc(CNc3ccc(C(=O)NC(CCCCNC(=O)c4ccccc4C(=O)O)C(=O)O)cc3)cnc2n1 (stereo not drawn) = YES
COc1ccc(C(C#N)NC23CC4CC(CC(C4)C2)C3)cc1OC (stereo not drawn) = NO
CCOP(=O)(OCC)C(F)(F)CC1CCCCC1 = NO

Ask: What did this assay record as the result for O=NC1c2cccc3cccc(c23)C1N=O (stereo not drawn) ?
Reply: NO

Ask: Short answer needed: outcome of this test for CCOP(=O)(OCC)/C(C#N)=C/c1ccnc2ccccc12 ?
Reply: NO

Ask: Which outcome was entered for the compound CC(=O)/C=C/CCC(=O)/C=C/C(=O)OC(CCC(=O)/C=C/C(=O)O)CC(C)=O (stereo not drawn) in this test?
Reply: NO

###

Assign GI50 to each entry below.
# Test system: NCI-H460
# measurement_notes: NCI tumour cell line growth inhibition, 48 h
Where a name gives a salt, the structure may show the parent alone. Activity calls are given as the source filed them. No stated cut-off is given here; in the data, active = GI50 up to about 1.1 µM and inactive = higher.

Completed entries (count: 5):
c1ccc2sc(SCN(C3CCCCC3)C3CCCCC3)nc2c1 = > 100 µM (inactive)
CC(=O)OCc1ccc2oc(=O)c(C(=O)Oc3cccc(Cl)c3)cc2c1 = 37.9 µM (inactive)
O=C1NCCCNCCCNCCCNC(=O)c2cccc1n2 = > 100 µM (inactive)
OC(CNc1ccccn1)c1ccccc1 (stereo not given) [PHENYRAMIDOL HYDROCHLORIDE] = > 100 µM (inactive)
COc1c(C)c2c(c3c1c(=O)c1ccccc1n3C)C=CC(C)(C)O2 = 18.7 µM (inactive)

Please supply GI50 for each of the following items, keeping them in order.
1. COc1cccc(N2C(=O)CS(=O)(=O)C2c2cccc(Oc3ccccc3)c2)c1 (stereo not given)
2. CN(C)CCNC(=O)c1cccc(C(=O)Nc2ccccc2)c1[N+](=O)[O-]
3. COc1ccc2[nH]c3c4c(cc(-c5ccccc5)c3c2c1)C(=O)N(c1ccccc1)C4=O
4. Cc1ccc(-c2cc(-c3ccccc3)c(C#N)c(=O)n2C2OC(CO)C(O)C(O)C2O)cc1 (stereo not given)
5. Nn1c(S)nnc1CCCCCCCCc1nnc(S)n1N

Reply:
13.6 µM (inactive)
> 100 µM (inactive)
9.73 µM (inactive)
> 100 µM (inactive)
> 100 µM (inactive)

Each recorded value in this set is attributed to ChEMBL document CHEMBL1201862.
